The entries below come with measured protein stability index values attached.
B1: CPXM2 (parent)
chain: EILGCPLPDPNNYYHRRNEMTTTD

# Variants of: B1
# method-summary: protein stability index of a GFP-peptide fusion (GPS, HEK-293T) (PSI 1-6); higher = more stable;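 note: lentivirally expressed fusions sorted by FACS into six bins by GFP to DsRed ratio, PSI derived from sequencing read proportions per bin multiplied by bin number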
# test-settings: c terminus: a fixed tail appended
A bare number is all that is needed in reply.

The examples below pair each entry with its known result.
{"var": "I2W", "protein stability index": 3.82}
{"var": "D24Y", "protein stability index": 2.29}
{"var": "M20N", "protein stability index": 3.92}
{"var": "L7W", "protein stability index": 3.32}

Input: Give protein stability index for the following variant: Y13L
Output: 3.58

Input: Give protein stability index for the following variant: C5Y
Output: 2.96

Input: Give protein stability index for the following variant: N18P
Output: 3.21

Input: Give protein stability index for the following variant: R17Q
Output: 4.02

Input: Give protein stability index for the following variant: R16M
Output: 3.48

Input: Give protein stability index for the following variant: P10D
Output: 3.88
